Tested on: FaDu human head and neck cancer xenograft
Experiment: Xenograft model of anti-NTSR1 ADCs (head and neck cancer)
Type: in vivo, male NOD SCID mice
Details: 5 mpk, IV, BIW × 3; Day 14
Excerpt: The aim of this study was to evaluate the in vivo anti-tumor efficacy of αNTSR1 (AKT2) 4seco-DUBA, αNTSR1 (AKT2 Hu/Hu) 4seco-DUBA, and αNTSR1 (AKT2 Hu/Hd) 4seco-DUBA in FaDu human head and neck cancer xenograft model in male NOD SCID mice. […] The tumor volumes, body weights, mortality, and signs of overt toxicity were monitored and recorded three times weekly for 28 days. […]
# TGI % (1-T/C) Day 14 values compiled below
Entry rule: numbers only, all in %.

Recorded TGI % (1-T/C) Day 14, per entry:
# molecule, unit.descriptor, TGI % (1-T/C) Day 14
rows = [
    ("AKT2: affinity-matured mouse-human chimera anti-NTSR1 antibody, AKT2 VH (SEQ ID NO: 9) and AKT2 VL (SEQ ID NO: 10) (antibody, V domains shown) VH: QVQLQQPGSVLVRPGASVKLSCKASGYAFTSSWIHWAKQRPGQGLEWIGQIRPNSGNTYYNEKFKVKATLTVDTSSSTAYVDLSSLTSEDSAVYYCARYHYGFDYWGQGTLVTVSS VL: DVLMTQTPLSLPVSLGDQASISCRSSQSIVHSNGNTYLEWYLQKPGQSPKLLIYKVSNRFSGVPDRFSGSGSGTDFTLKISRVEAEDLGVYYCFQGAHLPWTFGGGTKLEIK", "%", 29.9),
    ("AKT2 HuHu: humanized anti-NTSR1 antibody, AKT2 HuVH (SEQ ID NO: 16) and AKT2 HuVL (SEQ ID NO: 17) (antibody, V domains shown) VH: QVQLVQSGAEVKKPGASVKVSCKASGYAFTSSWIHWVRQAPGQGLEWMGQIRPNSGNTYYNEKFKVRVTMTRDTSTSTVYMELSSLRSEDTAVYYCARYHYGFDYWGQGTLVTVSS VL: DIVMTQTPLSLSVTPGQPASISCRSSQSIVHSNGNTYLEWYLQKPGQSPQLLIYKVSNRFSGVPDRFSGSGSGTDFTLKISRVEAEDVGVYYCFQGAHLPWTFGQGTKVEIK", "%", 25.6),
]

IN: Which measured TGI % (1-T/C) Day 14 value corresponds to AKT2 HuHd: humanized anti-NTSR1 antibody, AKT2 HuVH (SEQ ID NO: 16) and AKT2 HdVL (SEQ ID NO: 15) (antibody, V domains shown) VH: QVQLVQSGAEVKKPGASVKVSCKASGYAFTSSWIHWVRQAPGQGLEWMGQIRPNSGNTYYNEKFKVRVTMTRDTSTSTVYMELSSLRSEDTAVYYCARYHYGFDYWGQGTLVTVSS VL: DIQMTQSPSSLSASVGDRVTITCRSSQSIVHSNGNTYLEWYQQKPGKAPKLLIYKVSNRFSGVPSRFSGSGSGTDFTLTISSLQPEDFATYYCFQGAHLPWTFGQGTKVEIK ?
OUT: 37.8
